This collection of values is drawn from BindingDB's records for doi:10.1016/j.bmcl.2007.01.064.

- system tested: Disintegrin and metalloproteinase domain-containing protein 17 [215-477,S266A,N452Q] (Homo sapiens, UniProt P78536, N452Q/S266A)
- Construct: 215-477
- Sequence (P78536 215-477 S266A/N452Q): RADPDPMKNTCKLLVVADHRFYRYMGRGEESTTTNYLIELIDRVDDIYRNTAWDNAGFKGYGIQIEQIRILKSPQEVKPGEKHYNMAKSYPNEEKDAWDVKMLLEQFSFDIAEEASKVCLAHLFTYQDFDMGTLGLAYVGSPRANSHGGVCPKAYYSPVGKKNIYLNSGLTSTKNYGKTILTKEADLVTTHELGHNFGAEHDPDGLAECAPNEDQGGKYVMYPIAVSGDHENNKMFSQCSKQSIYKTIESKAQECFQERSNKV
- experimental details: TACE Inhibition Assay
- study conditions: pH 7.5; 22 °C
recorded metric: Ki (nM)

{"chemical smiles": "CC#CCOc1ccc(S(=O)(=O)N(C)CCS)cc1", "recorded metric": "Ki", "reading": 56}
